Hey, just so you know, these numbers are from patent US20230303690A1.

Each entry below carries its recorded IL-2, % of BMS, at 0.740740741 ug/mL.
# subject-of-test: human LAG3 expressed on cells (human) (UniProt P18627)
# Sequence (P18627 23-525): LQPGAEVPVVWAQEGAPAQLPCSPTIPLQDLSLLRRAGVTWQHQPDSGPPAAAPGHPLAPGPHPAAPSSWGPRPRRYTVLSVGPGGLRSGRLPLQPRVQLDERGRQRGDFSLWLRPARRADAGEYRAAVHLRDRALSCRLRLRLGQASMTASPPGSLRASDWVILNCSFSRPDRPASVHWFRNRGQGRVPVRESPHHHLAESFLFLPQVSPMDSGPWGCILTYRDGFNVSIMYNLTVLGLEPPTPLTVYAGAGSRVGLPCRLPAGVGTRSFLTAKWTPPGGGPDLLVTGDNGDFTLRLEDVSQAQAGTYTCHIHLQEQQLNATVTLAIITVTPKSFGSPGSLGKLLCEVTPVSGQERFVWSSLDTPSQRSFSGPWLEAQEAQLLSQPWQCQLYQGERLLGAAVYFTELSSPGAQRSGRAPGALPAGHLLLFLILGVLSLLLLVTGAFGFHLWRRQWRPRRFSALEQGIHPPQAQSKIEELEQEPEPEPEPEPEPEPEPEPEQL
# protocol-summary: cell-based or functional assay
Only the number, expressed in %, is required.

[Q] Item sdAb fusion 25-2015-2 (Fc fusion, not shown: a dimerising Fc or GST) QLQLVESGGGLVQAGGSLRLSCAASGSIESFSFMGWYRQAPGKQRELVAGFTGAASLSFSTYTDAVKGRFTISRDNAKNTVYLQMNSLKPEDTAVYFCNVDPWSQSWPGRYWGQGTQVTVSSGGGGSGGGGSQLQLVESGGGLAQTGGSLRLSCAAAGFTFDDTATGWFRQAPGKNREGVACISSSDGRIHYIDSAKGRFTISKDNAKKTVYLQMDSLKPEDTAVYYCAAARKGSTDCQGAIWGSWGQGTQVIVSSEPKSCDKTHTCPPCPAPELLG has what recorded IL-2, % of BMS, at 0.740740741 ug/mL?
[A] 59.4

[Q] So what's the measured IL-2, % of BMS, at 0.740740741 ug/mL for this one? sdAb fusion 25-27-3 (Fc fusion, not shown: a dimerising Fc or GST) QLQLVESGGGLVQAGGSLRLSCAASGSIESFSFMGWYRQAPGKQRELVAGFTGAASLSFSTYTDAVKGRFTISRDNAKNTVYLQMNSLKPEDTAVYFCNVDPWSQSWPGRYWGQGTQVTVSSGGGGSGGGGSGGGGSQVQLVESGGGLVQPGGSLRLSCAASGFTLDYYAIGWFRQAPGKEREGVSCIRSSDGSTYYADSVKGRFTISSDNTKNTVYLQMNSLKPEDTAVYYCATDRYSDCRGPYENWGQGTQVTVSSEPKSCDKTHTCPPCPAPELLG
[A] 17

[Q] What measured IL-2, % of BMS, at 0.740740741 ug/mL goes with sdAb fusion 25-2015-1 (Fc fusion, not shown: a dimerising Fc or GST) QLQLVESGGGLVQAGGSLRLSCAASGSIESFSFMGWYRQAPGKQRELVAGFTGAASLSFSTYTDAVKGRFTISRDNAKNTVYLQMNSLKPEDTAVYFCNVDPWSQSWPGRYWGQGTQVTVSSGGGGSQLQLVESGGGLAQTGGSLRLSCAAAGFTFDDTATGWFRQAPGKNREGVACISSSDGRIHYIDSAKGRFTISKDNAKKTVYLQMDSLKPEDTAVYYCAAARKGSTDCQGAIWGSWGQGTQVIVSSEPKSCDKTHTCPPCPAPELLG ?
[A] 59.7

[Q] Any idea what its IL-2, % of BMS, at 0.740740741 ug/mL is? The binder is sdAb fusion 25-17-3 (Fc fusion, not shown: a dimerising Fc or GST) QLQLVESGGGLVQAGGSLRLSCAASGSIESFSFMGWYRQAPGKQRELVAGFTGAASLSFSTYTDAVKGRFTISRDNAKNTVYLQMNSLKPEDTAVYFCNVDPWSQSWPGRYWGQGTQVTVSSGGGGSGGGGSGGGGSQLQLVESGGGLVQPGGSLRLSCAASGLTLDGYAIGWFRQAPGKEREGLACISGSDGSTHYLDSVKGRFTISRDNGKNTMALQMNSLQFGDTAIYYCAARRGSCSGSWTYWGQGTQVTVSSEPKSCDKTHTCPPCPAPELLG
[A] 28.9

[Q] IL-2, % of BMS, at 0.740740741 ug/mL lookup needed for sdAb fusion 25-17-1 (Fc fusion, not shown: a dimerising Fc or GST) QLQLVESGGGLVQAGGSLRLSCAASGSIESFSFMGWYRQAPGKQRELVAGFTGAASLSFSTYTDAVKGRFTISRDNAKNTVYLQMNSLKPEDTAVYFCNVDPWSQSWPGRYWGQGTQVTVSSGGGGSQLQLVESGGGLVQPGGSLRLSCAASGLTLDGYAIGWFRQAPGKEREGLACISGSDGSTHYLDSVKGRFTISRDNGKNTMALQMNSLQFGDTAIYYCAARRGSCSGSWTYWGQGTQVTVSS , thanks.
[A] 34
